Data origin, for the record: ChEMBL document CHEMBL1201862

Test system: MOLT-4
Experiment: NCI tumour cell line growth inhibition, 48 h
Active and inactive are the calls of the source. Cut-off read from the data, not from the text of the source: active = GI50 up to about 1.1 µM and inactive = higher. Where a SMILES comes first, the peptide text is derived from it.
# output must be one of active, inactive

Consider the following illustrative entries.
COC(C(O)CO)C(O)C(O)C(=O)NNc1ccccc1 (centres undefined); inactive
O=C(/C=C/c1ccccc1)CSc1nc2ccc(I)cc2c(=O)n1Cc1ccccc1; inactive
CCCC(=O)C1=C(O)C(Cc2c(O)c(C)c(O)c(C(=O)CCC)c2O)=C(O)C(C)(C)C1=O; inactive

Task: Which result was noted for this compound in the test: COC(=O)C(=O)C(C(=O)C(=O)Nc1ccc([N+](=O)[O-])cc1[N+](=O)[O-])c1nc2ccc(Cl)cc2nc1O (centres undefined)
Result: inactive

Task: Hi team, can someone confirm the assay call for Sc1nnc(SCc2ccccc2Cl)c2nc[nH]c12 ?
Result: inactive

Task: State the result this test recorded for CNC(=O)CNC(=O)C(NC(=O)CNC(=O)C1CCCN1C(=O)C(C)NC(=O)C(NC(C)=O)C(C)C)C(C)C (centres undefined) (Ac-VAPGVG-NHMe; configuration not given here) .
Result: inactive

Task: Answer briefly: the call reported for O=c1c(Cl)nsnc1Cl in this assay.
Result: inactive

Task: What call does the record list for C=C1CC[C@@H]2[C@](C)(COC(=O)CCC(=O)OC)CCC[C@@]2(C)[C@@H]1CCC1=CC(=O)OC1 ?
Result: inactive

Task: Status in this test for COC1C(O)=C2C(=O)O/C(C)=C/C=C/C=C/C=C\CC(c3ccccc3)NC(=O)\C=C/C=C\C=C\C=C\[C@@]2(C)[C@@H]1O (some centres undefined) ?
Result: active

Task: Please indicate how the test categorized Cc1cc(C)nc(NS(=O)(=O)c2ccc(Nc3c4ccccc4nc4c(C(=O)NCCO)cccc34)cc2)n1 .
Result: inactive

----------
Tested on: COLO 205
Assay: NCI tumour cell line growth inhibition, 48 h
Calls of active or inactive are those of the source. No stated cut-off is given here; in the data, active = GI50 up to about 1.1 µM and inactive = higher.
recorded.metric: GI50

Parameter requested: GI50. Apply to each item below.
1. O=C(/C=C1\Nc2ccccc2N=C1NC12CC3CC(CC(C3)C1)C2)c1ccc(Br)cc1
2. Nc1ccc(C(=O)N/C(=C\c2cccc([N+](=O)[O-])c2)c2nc3ccccc3[nH]2)cc1

Result:
> 10 µM (inactive)
> 100 µM (inactive)

Hey, quick one: what's GI50 for each of these?
1. C=C1CCC[C@@H](C)C(O)[C@@H]2OC(=O)C(=C)[C@@H]2C[C@@H](OC(C)=O)[C@@]2(C)CC[C@@H]1O2 (stereo partly specified)
2. CC(C)CC(Nc1c(O)ccc2ccccc12)C(=O)O (stereo unspecified)
3. COc1ccccc1Cc1nc(-c2ccccc2)nn(C2OC(COC(C)=O)C(OC(C)=O)C(OC(C)=O)C2OC(C)=O)c1=S (stereo unspecified)
4. COc1ccc2c(c1)[n+]([O-])c(-c1ccccc1)c(N)[n+]2[O-]

Result:
1: 6.37 µM (inactive); 2: > 100 µM (inactive); 3: > 40.4 µM (inactive); 4: 20.4 µM (inactive)

Each of the following entries comes with a recorded value; kindly state GI50 for each.
1. Cc1cc(C)nc(NS(=O)(=O)c2ccc(Nc3c4ccccc4nc4c(C(=O)NCCO)cccc34)cc2)n1
2. Cc1ccc2[nH]c(Sc3c([N+](=O)[O-])ncn3C)nc2c1
3. COc1cc(C=O)cc(/C=N/c2ccccn2)c1O
4. Clc1ccc(C(SCc2ccccc2)SCc2ccccc2)cc1
5. O=C(/C=C/c1ccc(OCc2cccc(Cl)c2)cc1)NO

Result:
1. 15.1 µM (inactive)
2. 13.3 µM (inactive)
3. 7.08 µM (inactive)
4. > 10 µM (inactive)
5. 14 µM (inactive)

----------
Tested on: NCI-H226
Assay: NCI tumour cell line growth inhibition, 48 h
Activity calls are given as the source filed them. Cut-off read from the data, not from the text of the source: active = GI50 up to about 1.1 µM and inactive = higher.
recorded.metric: GI50

Worked examples, 5 compounds total:
Oc1ccc(-c2nc3cc(C(F)(F)F)ccc3s2)cc1; 17.3 µM (inactive)
CCOC(=O)[C@H]1Nc2ccccc2C2c3ccccc3CC21 (stereo partly drawn); > 100 µM (inactive)
COc1cc2c(cc1OC)C(=O)Cc1ccc(OC)c(OC)c1CN(C)CC2; > 100 µM (inactive)
Nc1nc2c(=O)c3ccccc3sc2s1; 21.7 µM (inactive)
COc1cc(C=O)cc(/C=N/c2ccccn2)c1O; 4.84 µM (inactive)

Fill in GI50 for each of the 6 compounds listed.
1. CC1(c2ccccc2)CC(c2ccccc2)=NO1 (stereo not drawn)
2. COc1ccc(C2=Nn3c(C)nnc3S/C2=C\c2ccc(-c3ccc([N+](=O)[O-])cc3)o2)cc1
3. CC(C)(C)N1NC1C1NN1C(C)(C)C (stereo not drawn)
4. CC1OC(n2cc(I)c(=O)[nH]c2=O)C=CC1=O (stereo not drawn)
5. C1=N\CCNCC/N=C\c2ccc(cc2)OCc2cccc(n2)COc2ccc/1cc2
6. COC(=O)CCC(NC(=S)N/N=C/c1ccccn1)C(=O)OC (stereo not drawn)

Result:
1: > 100 µM (inactive); 2: 27.2 µM (inactive); 3: > 100 µM (inactive); 4: 17.6 µM (inactive); 5: > 100 µM (inactive); 6: > 100 µM (inactive)

Return reported GI50 values for all items listed beneath this line.
1. CCCCCCCCC(O)c1ccc(/C=C\C(O)CCCC(=O)O)s1 (stereo not drawn)
2. COc1ccc(N2C(=O)CC(C3CC(C(C)(C)C)CCC3=O)C2=O)cc1 (stereo not drawn)
3. COC(=O)[C@H](Cc1ccccc1)NC(=O)N1CCCN(C(=O)N[C@@H](Cc2ccccc2)C(=O)OC)CCCN(C(=O)N[C@@H](Cc2ccccc2)C(=O)OC)CCC1
4. COc1ccc2c(CN3CCCCC3CO)cc3cc(OC)c(OC)cc3c2c1 (stereo not drawn)
5. CN(C(=N)c1ccccc1)c1ccccc1
6. CSc1ncnc2c1cnn2CCCCO
7. Cc1csc(NCc2ccc(Cl)cc2)n1

Result:
["> 100 µM (inactive)", "> 100 µM (inactive)", "16.5 µM (inactive)", "4.32 µM (inactive)", "> 100 µM (inactive)", "> 100 µM (inactive)", "33.8 µM (inactive)"]

----------
Tested on: TK-10
Experiment: NCI tumour cell line growth inhibition, 48 h
Active and inactive are the calls of the source. Cut-off read from the data, not from the text of the source: active = GI50 up to about 1.1 µM and inactive = higher.
Provide the reported GI50 of each item.

Example compounds with recorded GI50:
COc1ccc(N[C@H]([C@@H](c2ccccc2)[S+]([O-])c2ccc(C)cc2)C(F)(F)F)cc1 (stereo partly drawn); 74.1 µM (inactive)
C#CCOC(=O)c1ccccc1OC(C)=O; > 100 µM (inactive)
COC(=O)NN1C(C)=C(C(=O)OC)C2(CCOC2=O)C1(C)O (stereo not drawn); > 100 µM (inactive)
CC1/C=C/C=C/CC/C=C/C=C/C=C/C=C/C(OC2OC(C)C(O)C(N)C2O)CC2OC(CC(O)C(O)CCC(O)CC(O)CC(O)CC(=O)OC(C)C(C)C1O)CC(O)C2C(=O)O (stereo not drawn); 17.5 µM (inactive)
C[N+]1(C)C/C(=C\C=C\c2ccccc2)C(=O)/C(=C/C=C/c2ccccc2)C1; 33.4 µM (inactive)
C=C1CCC[C@@H](C)C(O)[C@@H]2OC(=O)C(=C)[C@@H]2C[C@@H](OC(C)=O)[C@@]2(C)CC[C@@H]1O2 (stereo partly drawn); 7.96 µM (inactive)
CC12CC[C@H](O)C(C)(C)[C@H]1CC[C@](C)(O)C2COc1ccc2ccc(=O)oc2c1 (stereo partly drawn); > 100 µM (inactive)

Here's the next entry for you.
Task: For O=[N+]([O-])c1cc(C(F)(F)F)ccc1S(=O)(=O)N[C@@H]1CCCC[C@H]1NS(=O)(=O)c1ccc(C(F)(F)F)cc1[N+](=O)[O-] , what is its reported GI50?
Result: 11 µM (inactive)

----------
Tested on: T47D
Assay: NCI tumour cell line growth inhibition, 48 h
Calls of active or inactive are those of the source. Rule as the data show it: active = GI50 up to about 1.1 µM and inactive = higher.
Form entry, call: pick from active, inactive

O=C(O)C1(C(O)c2ccccc2)SCCCS1 (stereo unspecified); inactive

Task: Which outcome was entered for the compound O=C1Oc2ccccc2C(=O)/C1=C\Nc1nc(-c2ccccc2)cs1 in this test?
Result: inactive

Task: How did this test come out for O=C(NC(=O)c1ccccc1[N+](=O)[O-])Nc1ccc(Oc2ncc(Br)cn2)c(Cl)c1 ?
Result: active

----------
System: HOP-92
Assay: NCI tumour cell line growth inhibition, 48 h
The source made the active and inactive calls. Rule as the data show it: active = GI50 up to about 1.1 µM and inactive = higher.
recorded.metric: GI50

CSCCCNC(=O)c1csc([C@@H](CSC)NC(=O)CCNC(=O)[C@@H](NC(=O)OCC(Br)(Br)Br)C(C)O)n1 (stereo not given in full); > 100 µM (inactive)

Respectfully, I request GI50 for each entry included below.
1. CC1(C)CS(=O)(=O)CC(C)(C)C(=N/N)/C1=N\N
2. COc1ccccc1Cc1ccc(C2C=CC3(CC(=O)C=C3C)C(=O)C2)o1 (stereo not given)
3. Clc1n[nH]c2ccccc12
4. O=[N+]([O-])c1cc(C(F)(F)F)ccc1S(=O)(=O)N[C@@H]1CCCC[C@H]1NS(=O)(=O)c1ccc(C(F)(F)F)cc1[N+](=O)[O-]
5. COC(=O)C/N=C1\NC(=S)N(Cc2ccc(OC)cc2)C12CCCC2
6. CC[N+](CC)(CC)Cc1cc2ccccc2n1C(=O)OC
7. CNC(=S)N/N=C(\C)c1ccc(OC)cc1O

Result:
1: > 100 µM (inactive); 2: 20.5 µM (inactive); 3: > 100 µM (inactive); 4: 1.98 µM (inactive); 5: > 100 µM (inactive); 6: > 100 µM (inactive); 7: > 100 µM (inactive)

Hey, quick one: what's GI50 for each of these?
1. CC(C)(C)N1NC1C1NN1C(C)(C)C (stereo not given)
2. CCOC(=O)[C@H]1C[C@]23CN(C(=O)OC(C)(C)C)CC[C@H]2CCC2(SCCCS2)[C@@H]3N1C

Result:
> 100 µM (inactive)
14.1 µM (inactive)
